Molecular target: Mef2c (UniProt Q06413)
Sequence (Q06413 whole entry): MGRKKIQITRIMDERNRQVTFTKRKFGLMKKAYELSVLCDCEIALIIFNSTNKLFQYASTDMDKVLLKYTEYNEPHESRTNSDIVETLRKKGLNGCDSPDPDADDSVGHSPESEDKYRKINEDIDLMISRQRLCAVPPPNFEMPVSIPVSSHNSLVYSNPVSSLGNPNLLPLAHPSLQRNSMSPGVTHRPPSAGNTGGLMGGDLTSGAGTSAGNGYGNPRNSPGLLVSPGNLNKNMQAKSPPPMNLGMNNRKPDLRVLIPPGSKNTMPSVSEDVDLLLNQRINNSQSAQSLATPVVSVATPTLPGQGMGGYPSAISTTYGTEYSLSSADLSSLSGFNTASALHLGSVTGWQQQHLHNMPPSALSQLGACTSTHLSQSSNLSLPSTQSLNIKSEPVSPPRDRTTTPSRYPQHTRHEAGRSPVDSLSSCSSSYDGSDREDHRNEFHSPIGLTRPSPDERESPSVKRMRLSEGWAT
Settings: NECEEM; 25 mM tetraborate pH 9.4, room temperature; koff 0.022 s-1, kon 45 M-1 s-1
readout-name: pKd
Answer as the number alone; pKd is minus log10 of concentration in mol/L.

# lookup: pKd of CCTGCCACGCTCCGCTCTAAAAATAA (double strand) [Mef2c target dsDNA 26 bp]
3.32

Ref: patent US20100243450
